Readout Type: melting point

Query: melting point; subject: COC(=O)c1ccc(CN2N=C(c3ccc(OC)c(OC)c3)[C@@H]3CCCC[C@@H]3C2=O)cc1 (relative stereo)
90 to 92 °C

---
Can you share its melting point? I mean this compound: CCOC(=O)C(=CC=C(C#N)c1ccccc1)N(C)C
67 °C

Again, but for CCCc1c(OCCCS(=O)(=O)c2ccc(C(=O)CCC(=O)O)c(F)c2)ccc(C(C)=O)c1O
116 to 118 °C

Then this compound: CC(=O)Oc1ccc(C(=O)CN(CCNC(=O)Cc2ccccc2)Cc2ccccc2)cc1OC(C)=O
140 to 145 °C

How about this compound: NS(=O)(=O)c1ccc(-c2cc(-c3nc(-c4ccc(C(F)(F)F)cc4)cc(C(F)F)n3)ccn2)s1
242 °C

Here is the next compound: N#Cc1ccc2c(c1)CCC=C2c1cncs1
78 to 79 °C

Next entry: COC(=O)c1ccc(Cl)cc1N(C)S(C)(=O)=O
73 to 75 °C

One more compound: CS(=O)c1ccccc1C1CCCC2(C1)C(=O)Nc1ccccc12 (centres undefined)
190 to 191 °C

Field entry: Nc1cc(-n2cc(C(=O)O)c(=O)c3cc(F)c(F)c(Cl)c32)c(F)cc1F
225 to 226 °C

Now the same for NC(=O)c1cnn2c1NCCC2c1cccc(C(F)(F)F)c1 (centres undefined)
152 to 154 °C

Moving on to the next compound: CC(C)c1ccc(C(=O)C2=C(O)C(=O)N(c3ncc(S(=O)(=O)c4ccc([N+](=O)[O-])cc4)s3)C2c2ccc(C(F)(F)F)cc2)cc1 (centres undefined)
300 to 302 °C

Item: Cc1cccc(C(C(O)C(C)(C)C)n2ccnc2)c1 (centres undefined)
126 °C

Now give it for CSc1nc2sccc2c2nnc(SCc3ccccc3)n12 too.
209 to 211 °C

What do you get for O=C(CCCCN1CCOCC1)c1ccc2c(c1)C(=O)c1cc(C(=O)CCCCN3CCOCC3)ccc1-2 ?
146 to 148 °C
